B1: TRIM55 (parent)
chain: ICPICLEMFTKPVVILPCQHNLCR

variants of: B1; experiment: protein stability index of a GFP-peptide fusion (GPS, HEK-293T) (PSI 1-6); higher = more stable; conditions: c terminus: a fixed tail appended;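 note: lentivirally expressed fusions sorted by FACS into six bins by GFP to DsRed ratio, PSI derived from sequencing read proportions per bin multiplied by bin number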
endpoint label: protein stability index
Keep the answer to the number alone.

In one line, give reported protein stability index of the entry `N21V` .
2.35

In one line, give reported protein stability index of the entry `I15M` .
2

In one line, give reported protein stability index of the entry `M8E` .
2.59

In one line, give reported protein stability index of the entry `L22W` .
2.44

In one line, give reported protein stability index of the entry `R24A` .
1.92

In one line, give reported protein stability index of the entry `T10C` .
2.08

In one line, give reported protein stability index of the entry `M8R` .
2.42

In one line, give reported protein stability index of the entry `L16N` .
2.67

In one line, give reported protein stability index of the entry `C18F` .
1.89

In one line, give reported protein stability index of the entry `N21C` .
2.2

In one line, give reported protein stability index of the entry `C2M` .
1.67

In one line, give reported protein stability index of the entry `V14S` .
3.12

In one line, give reported protein stability index of the entry `E7Q` .
2.42

In one line, give reported protein stability index of the entry `C2R` .
2.03

In one line, give reported protein stability index of the entry `M8C` .
2.44

In one line, give reported protein stability index of the entry `P3W` .
1.9

In one line, give reported protein stability index of the entry `P3V` .
2.21

In one line, give reported protein stability index of the entry `L22A` .
2.36

In one line, give reported protein stability index of the entry `M8V` .
2.17

In one line, give reported protein stability index of the entry `P17I` .
2.18

In one line, give reported protein stability index of the entry `R24C` .
2.27

In one line, give reported protein stability index of the entry `V13P` .
2.23
